- TEST TARGET: Leishmania mexicana arginase (LmARG) (Leishmania mexicana, UniProt Q6TUJ5)
- PROCEDURE TEXT: Inhibitor profile of recombinant LmARG
- Format: biochemical
- STATED CONDITIONS: Dixon plot analysis, or assumed where Ki was calculated from panel data
PROPERTY LABEL: Type of Inhibition

Request: Answer with the recorded Type of Inhibition for the compound listed here: `N[C@@H](CSCCB(O)O)C(=O)O`
Result: Competitive

Request: Annotate the compound `N[C@@H](CCC(=O)N[C@H]1CSSC[C@H](NC(=O)CC[C@H](N)C(=O)O)C(=O)NCC(=O)NCCCNCCCCNC(=O)CNC1=O)C(=O)O` with its measured Type of Inhibition.
Result: Uncompetitive

Request: Kindly indicate its recorded Type of Inhibition. Item: N=C(NO)NCC[C@H](N)C(=O)O [nor-NOHA, N^ω-hydroxy-nor-L-arginine]
Result: Competitive

Request: Read off the recorded Type of Inhibition for `Nc1nc2nc(N)[nH]c2c(=O)[nH]1`
Result: Uncompetitive

====

- TEST TARGET: Leishmania mexicana arginase (LmARG) (Leishmania mexicana, UniProt Q6TUJ5)
- PROCEDURE TEXT: Inhibitor profile of recombinant LmARG
- Assay type: biochemical
- STATED CONDITIONS: Dixon plot analysis, or assumed where Ki was calculated from panel data
PROPERTY LABEL: Type of Inhibition

Request: Given `N[C@@H](CS)C(=O)O` , respond with its Type of Inhibition.
Result: Competitive

Request: Identify Type of Inhibition associated with the compound N[C@@H](CCCCB(O)O)C(=O)O [ABH, 2(S)-amino-6-boronohexanoic acid]
Result: Competitive

Request: Report Type of Inhibition for N=C(NO)NCCC[C@H](N)C(=O)O [NOHA, N^ω-hydroxy-L-arginine]
Result: Competitive

====

- TEST TARGET: UniProtKB Q6TUJ5
- PROCEDURE TEXT: Inhibitor profile of recombinant LmARG
- Assay type: biochemical
- STATED CONDITIONS: Ki vs. LmARG, Dixon plot analysis
PROPERTY LABEL: Ki

Some compounds with recorded Ki:
Request: Return Ki for the following compound: N[C@@H](CCCCB(O)O)C(=O)O [ABH, 2(S)-amino-6-boronohexanoic acid]
Result: 1.3 µM

Request: Give a short answer stating reported Ki for N[C@@H](CS)C(=O)O [L-cysteine] .
Result: 11000 µM

Request: Kindly indicate its recorded Ki. Item: Nc1nc2nc(N)[nH]c2c(=O)[nH]1 [8-aminoguanine]
Result: < 2000 µM

Let us move to another entry and its Ki.
Request: Tell me Ki reported for N[C@@H](CSCCB(O)O)C(=O)O [BEC, S-(2-boronoethyl)-L-cysteine]
Result: ~10 µM

====

- TEST TARGET: human ARGI (HsARGI) (Homo sapiens)
- Sequence (P05089 whole entry): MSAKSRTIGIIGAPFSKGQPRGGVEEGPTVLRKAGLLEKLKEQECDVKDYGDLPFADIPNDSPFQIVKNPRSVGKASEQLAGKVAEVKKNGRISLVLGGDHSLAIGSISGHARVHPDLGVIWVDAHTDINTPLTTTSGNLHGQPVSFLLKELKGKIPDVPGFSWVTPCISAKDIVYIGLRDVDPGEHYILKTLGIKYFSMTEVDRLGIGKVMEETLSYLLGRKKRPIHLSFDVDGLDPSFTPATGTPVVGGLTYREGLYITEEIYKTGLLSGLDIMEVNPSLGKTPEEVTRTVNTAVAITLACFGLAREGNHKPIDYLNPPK
- PROCEDURE TEXT: Inhibitor profile of recombinant HsARGI
PROPERTY LABEL: pKi
When answering, recall that pKi equals minus log10 of the concentration in mol/L, and write that number alone.

Request: // Input: N[C@@H](CCCCB(O)O)C(=O)O [ABH, 2(S)-amino-6-boronohexanoic acid] . Output its pKi only.
Result: 5.46

New cases:
Request: Quickly give me recorded pKi for `N[C@@H](CSCCB(O)O)C(=O)O`
Result: 4.85

====

- TEST TARGET: Leishmania mexicana arginase (LmARG) (Leishmania mexicana)
- PROCEDURE TEXT: Inhibitor profile of recombinant LmARG
- Assay type: biochemical
- STATED CONDITIONS: read-out: Ki vs. LmARG; Dixon plot analysis
PROPERTY LABEL: pKi
As a rule, pKi stands for the negative log10 of the concentration, concentration in M.

Request: Complete the entry with pKi for N=C(NO)NCCC[C@H](N)C(=O)O [NOHA, N^ω-hydroxy-L-arginine]
Result: 4.07

====

- TEST TARGET: Leishmania mexicana arginase (LmARG) (Leishmania mexicana)
- PROCEDURE TEXT: Inhibitor profile of recombinant LmARG
- Type: biochemical
- STATED CONDITIONS: 40 mM compound, 40 mM L-arginine substrate
PROPERTY LABEL: block of LmARG activity (in words)

Request: Give block of LmARG activity (in words) for N=C(NO)NCC[C@H](N)C(=O)O [nor-NOHA, N^ω-hydroxy-nor-L-arginine]
Result: completely blocked

Request: Input N[C@@H](CCCCB(O)O)C(=O)O [ABH, 2(S)-amino-6-boronohexanoic acid] , output reported block of LmARG activity (in words).
Result: completely blocked

Request: Assign block of LmARG activity (in words) to the following record: N[C@@H](CSCCB(O)O)C(=O)O [BEC, S-(2-boronoethyl)-L-cysteine]
Result: completely blocked

Request: Input N=C(NO)NCCC[C@H](N)C(=O)O [NOHA, N^ω-hydroxy-L-arginine] , output reported block of LmARG activity (in words).
Result: completely blocked
